molecular target: T1, Factor XIa (human, UniProt P03951 19-625); experiment: inhibition of FXIa cleavage of S-2366
T1 construct: also called FXIa
PARAMETER_MEASURED: Ki

BINDER	PARAMETER_MEASURED	EXPERIMENTAL_RESULT
APPI-WT (SEQ ID NO: 25), soluble, expressed in Pichia pastoris (other, Secreted from P. pastoris GS115, purified by nickel IMAC and gel filtration; also called WT APPI; not shown: N-terminal FLAG tag with the SnaBI/EcoRI-coded residues, and the C-terminal AvrII-coded residues plus His6) EVCSEQAETGPCRAMISRWYFDVTEGKCAPFFYGGCGGNRNNFDTEEYCMAVCGSAI	Ki	0.41 nM
APPI-M17G/I18F/F34V (SEQ ID NO: 8), soluble (designed binder, also called APPI 3M; APPI^3M; not shown: AvrII site residues and C-terminal HIS6 tag) EVCSEQAETGPCRAGFSRWYFDVTEGKCAPFVYGGCGGNRNNFDTEEYCMAVCGSAI	Ki	98.4 nM
